experiment: Urinary recovery of carbapenem antibiotics combined with DHP-I inhibitor; assay type: in vivo, ICR mice; details: mouse, urine, iv, 1 mg/kg, antibiotic 1 mg/kg i.v.; with Test compound No. 1, 1 mg/kg; ICR mice

{"columns": ["COMPOUND", "DISPLAY UNIT", "dose excreted"],
 "data": [
  ["C[C@@H](O)[C@H]1C(=O)N2C(C(=O)O)=C(SCCNC=N)CC12 (some centres unmarked)", "%", 63.8],
  ["C[C@@H](O)[C@H]1C(=O)N2C(C(=O)O)=C(S[C@@H]3CN[C@H](COC(N)=O)C3)CC12 (some centres unmarked)", "%", 57.8]
]}
